Test: Solubility tests of crystal form A in different solvents (manual stepwise dilution)
Format: physicochemical
Details: organic solvent or mixture, thermodynamic from solid; Ethanol; atmospheric temperature
outcome measure: solubility

Query block: # query: solubility of entry CN(c1ncnc2[nH]ccc12)[C@@H]1CCn2cc(C#N)nc2C1 [Crystal Form A of Compound 1]
Result block: < 2000 µg/mL

---

Assay: Solubility tests of crystal form A in different solvents (manual stepwise dilution)
Format: physicochemical
Details: aqueous with cosolvent or surfactant or cyclodextrin, thermodynamic from solid; Ethanol-water (3:1); atmospheric temperature
outcome measure: solubility

Query block: # query: solubility of entry CN(c1ncnc2[nH]ccc12)[C@@H]1CCn2cc(C#N)nc2C1 [Crystal Form A of Compound 1]
Result block: < 2000 µg/mL

---

Assay: Solubility tests of crystal form A in different solvents (manual stepwise dilution)
Format: physicochemical
Conditions: organic solvent or mixture, thermodynamic from solid; Acetonitrile; atmospheric temperature
outcome measure: solubility

Query block: # query: solubility of entry CN(c1ncnc2[nH]ccc12)[C@@H]1CCn2cc(C#N)nc2C1 [Crystal Form A of Compound 1]
Result block: < 2000 µg/mL

---

Experiment: Solubility tests of crystal form A in different solvents (manual stepwise dilution)
Assay type: physicochemical
Details: thermodynamic from solid; Water; atmospheric temperature
outcome measure: solubility

Query block: # query: solubility of entry CN(c1ncnc2[nH]ccc12)[C@@H]1CCn2cc(C#N)nc2C1 [Crystal Form A of Compound 1]
Result block: < 2000 µg/mL

---

Experiment: Solubility tests of crystal form A in different solvents (manual stepwise dilution)
Format: physicochemical
Conditions: aqueous with cosolvent or surfactant or cyclodextrin, thermodynamic from solid; Methanol-water (1:1); atmospheric temperature
outcome measure: solubility

Query block: # query: solubility of entry CN(c1ncnc2[nH]ccc12)[C@@H]1CCn2cc(C#N)nc2C1 [Crystal Form A of Compound 1]
Result block: < 2000 µg/mL

---

Assay: Solubility tests of crystal form A in different solvents (manual stepwise dilution)
Assay type: physicochemical
Details: organic solvent or mixture, thermodynamic from solid; Toluene; atmospheric temperature
outcome measure: solubility

Query block: # query: solubility of entry CN(c1ncnc2[nH]ccc12)[C@@H]1CCn2cc(C#N)nc2C1 [Crystal Form A of Compound 1]
Result block: < 2000 µg/mL

---

Experiment: Solubility tests of crystal form A in different solvents (manual stepwise dilution)
Assay type: physicochemical
Conditions: organic solvent or mixture, thermodynamic from solid; N-butanol; atmospheric temperature
outcome measure: solubility

Query block: # query: solubility of entry CN(c1ncnc2[nH]ccc12)[C@@H]1CCn2cc(C#N)nc2C1 [Crystal Form A of Compound 1]
Result block: < 2000 µg/mL

---

Assay: Solubility tests of crystal form A in different solvents (manual stepwise dilution)
Format: physicochemical
Conditions: organic solvent or mixture, thermodynamic from solid; Methanol; atmospheric temperature
outcome measure: solubility

Query block: # query: solubility of entry CN(c1ncnc2[nH]ccc12)[C@@H]1CCn2cc(C#N)nc2C1 [Crystal Form A of Compound 1]
Result block: < 2000 µg/mL

---

Test: Solubility tests of crystal form A in different solvents (manual stepwise dilution)
Assay type: physicochemical
Conditions: organic solvent or mixture, thermodynamic from solid; 2-methyltetrahydrofuran; atmospheric temperature
outcome measure: solubility

Query block: # query: solubility of entry CN(c1ncnc2[nH]ccc12)[C@@H]1CCn2cc(C#N)nc2C1 [Crystal Form A of Compound 1]
Result block: < 2000 µg/mL

---

Test: Solubility tests of crystal form A in different solvents (manual stepwise dilution)
Format: physicochemical
Details: organic solvent or mixture, thermodynamic from solid; Ethyl acetate; atmospheric temperature
outcome measure: solubility

Query block: # query: solubility of entry CN(c1ncnc2[nH]ccc12)[C@@H]1CCn2cc(C#N)nc2C1 [Crystal Form A of Compound 1]
Result block: < 2000 µg/mL

---

Test: Solubility tests of crystal form A in different solvents (manual stepwise dilution)
Assay type: physicochemical
Conditions: aqueous with cosolvent or surfactant or cyclodextrin, thermodynamic from solid; Methanol-water (3:1); atmospheric temperature
outcome measure: solubility

Query block: # query: solubility of entry CN(c1ncnc2[nH]ccc12)[C@@H]1CCn2cc(C#N)nc2C1 [Crystal Form A of Compound 1]
Result block: < 2000 µg/mL

---

Experiment: Solubility tests of crystal form A in different solvents (manual stepwise dilution)
Format: physicochemical
Conditions: aqueous with cosolvent or surfactant or cyclodextrin, thermodynamic from solid; Acetonitrile-water (1:1); atmospheric temperature
outcome measure: solubility

Query block: # query: solubility of entry CN(c1ncnc2[nH]ccc12)[C@@H]1CCn2cc(C#N)nc2C1 [Crystal Form A of Compound 1]
Result block: < 2 mg/mL

---

Assay: Solubility tests of crystal form A in different solvents (manual stepwise dilution)
Format: physicochemical
Conditions: organic solvent or mixture, thermodynamic from solid; Methyl ethyl ketone; atmospheric temperature
outcome measure: solubility

Query block: # query: solubility of entry CN(c1ncnc2[nH]ccc12)[C@@H]1CCn2cc(C#N)nc2C1 [Crystal Form A of Compound 1]
Result block: < 2000 µg/mL

---

Assay: Solubility tests of crystal form A in different solvents (manual stepwise dilution)
Assay type: physicochemical
Conditions: organic solvent or mixture, thermodynamic from solid; Methyl isobutyl ketone; atmospheric temperature
outcome measure: solubility

Query block: # query: solubility of entry CN(c1ncnc2[nH]ccc12)[C@@H]1CCn2cc(C#N)nc2C1 [Crystal Form A of Compound 1]
Result block: < 2000 µg/mL

---

Assay: Solubility tests of crystal form A in different solvents (manual stepwise dilution)
Assay type: physicochemical
Conditions: organic solvent or mixture, thermodynamic from solid; Methyl tert-butyl ether; atmospheric temperature
outcome measure: solubility

Query block: # query: solubility of entry CN(c1ncnc2[nH]ccc12)[C@@H]1CCn2cc(C#N)nc2C1 [Crystal Form A of Compound 1]
Result block: < 2000 µg/mL

---

Experiment: Solubility tests of crystal form A in different solvents (manual stepwise dilution)
Assay type: physicochemical
Conditions: organic solvent or mixture, thermodynamic from solid; Heptane; atmospheric temperature
outcome measure: solubility

Query block: # query: solubility of entry CN(c1ncnc2[nH]ccc12)[C@@H]1CCn2cc(C#N)nc2C1 [Crystal Form A of Compound 1]
Result block: < 2000 µg/mL

Where do these numbers come from? They come from patent US10774094B2.
